Recorded values, source patent EP4506003A1.

- Tested on: blood of patients with T-ALL
- PROCEDURE_DETAILS: Hemogram of blood of patients with T-ALL after exposure
- Type: cell-based
- EXPERIMENTAL_CONDITIONS: 10 µg/ml, 3 hours, 37.0°C
Marks after values point to notes of the source that are not given here.
MEASURED_ENDPOINT: Monocytes

Please review the entries below; each comes with its answer.
MOLECULE | TESTED_ON | Monocytes
COc1cc2c(cc1OC)C(c1cc3c(cc1Cl)OCO3)NCC2 (stereo not shown) | blood of patients with T-ALL | 1,2±0,2*^ %
COc1cccc2c1C(=O)c1c(O)c3c(c(O)c1C2=O)C[C@@](O)(C(=O)CO)C[C@@H]3O[C@H]1C[C@H](N)[C@H](O)[C@H](C)O1 [Doxorubicin, doxorubicin, reference compound] | blood of patients with T-ALL | 1.7±0,2%
COc1cc2c(cc1OC)C(c1cc3c(cc1Br)OCO3)NCC2 (stereo not shown) | blood of patients with T-ALL | 1,3±0,3 %

Now let's try a different one.
Q: For Nc1ccn([C@@H]2O[C@H](CO)[C@@H](O)[C@@H]2O)c(=O)n1 [Cytosar, cytarabine, reference compound] , what is its reported Monocytes?
A: 2,3±0,4%

* * *

- Test system: blood of patients with AML
- PROCEDURE_DETAILS: Hemogram of blood of patients with AML after exposure (Example 13, Table 10; also OMML)
- Type: cell-based
- EXPERIMENTAL_CONDITIONS: AML (Table 10); 10 µg/ml; 3 hours, 37.0°C
MEASURED_ENDPOINT: Myelocytes

// known answers, use as guide
COMPOUND | Myelocytes
COc1cccc2c1C(=O)c1c(O)c3c(c(O)c1C2=O)C[C@@](O)(C(=O)CO)C[C@@H]3O[C@H]1C[C@H](N)[C@H](O)[C@H](C)O1 [Doxorubicin, doxorubicin, reference compound] | 4,0±0,4 %
Nc1ccn([C@@H]2O[C@H](CO)[C@@H](O)[C@@H]2O)c(=O)n1 [Cytosar, cytarabine, reference compound] | 16,0±1,4 %
COc1cc2c(cc1OC)C(c1cc3c(cc1Cl)OCO3)NCC2 (stereo not shown) [Compound F2] | 3,2±0,5 %

In the following, a different compound is considered.
Q: Form field - read-out: Myelocytes; system: blood of patients with AML; submitted item: COc1cc2c(cc1OC)C(c1cc3c(cc1Br)OCO3)NCC2 (stereo not shown) [Compound F1]
A: 2,6±0,5 %

* * *

- Test system: blood of patients with AML
- PROCEDURE_DETAILS: Hemogram of blood of patients with AML after exposure (Example 14, Table 11)
- Format: cell-based
- EXPERIMENTAL_CONDITIONS: AML (Table 11); 10 µg/ml; 3 hours, 37.0°C
MEASURED_ENDPOINT: Blasts

Please state, for each entry, its recorded Blasts.
1. COc1cccc2c1C(=O)c1c(O)c3c(c(O)c1C2=O)C[C@@](O)(C(=O)CO)C[C@@H]3O[C@H]1C[C@H](N)[C@H](O)[C@H](C)O1 [Doxorubicin, doxorubicin, reference compound]
2. Nc1ccn([C@@H]2O[C@H](CO)[C@@H](O)[C@@H]2O)c(=O)n1 [Cytosar, cytarabine, reference compound]
3. COc1cc2c(cc1OC)C(c1cc3c(cc1Br)OCO3)NCC2 (stereo not shown) [Compound F1]
4. COc1cc2c(cc1OC)C(c1cc3c(cc1Cl)OCO3)NCC2 (stereo not shown) [Compound F2]

A:
45,4±1,9 %
59,5±3,7 %
55,4±3,1 %
59,1±3,3 %
